Sourced from patent US20250049776A1

- System: Human osteosarcoma U20S cells
- measurement_protocol: Assay to measure lysosome and autolysosome formation (acidic vesicle formation, LysoView/LysoTracker staining)
- Format: cell-based
- experimental_setup: Homo sapiens; U2OS cells, concentration of 0.8 μM; read-out: Activity (percentage increase in acidic vesicle formation over the DMSO-treated control), Table 2
property_name: activation at 0.8 µM

// below: answered compounds
# compound, study_target, activation at 0.8 µM
rows = [
    ("CCCN(C(=O)c1csc(-c2ccc(-c3ccccc3)s2)n1)[C@@H]1CCNC1", "Human osteosarcoma U20S cells", "30 to 50%"),
    ("CCCN(C(=O)c1cc(-c2cnn(-c3ccccc3)c2)cs1)[C@H]1CCNC1", "Human osteosarcoma U20S cells", "10 to 30%"),
    ("CCCN(C(=O)c1csc(-c2cnn(-c3ccccc3)c2)c1)[C@H]1CCNC1", "Human osteosarcoma U20S cells", "10 to 30%"),
]

Could you tell me which activation at 0.8 µM is on file for `CCCN(C(=O)c1csc(-c2cnn(-c3cccc(C(F)(F)F)c3)c2)n1)[C@H]1CCNC1` ?
50 to 100%

Please do the same for O=C(NC1C[C@@H]2C[C@H]1CN2)c1csc(-c2cnn(-c3ccccc3)c2)n1 (some centres unmarked) as well.
30 to 50%

Also `CCCN(C(=O)c1csc(-c2cnn(-c3ccccc3Cl)c2)n1)[C@H]1CCNC1` , if possible.
10 to 30%

And the next one, `NCCCNC(=O)c1csc(-c2cnn(-c3ccccc3)c2)n1` ?
30 to 50%

Thanks! And `CCCN(C(=O)c1csc(-c2cnn(-c3cccc(C(F)(F)F)c3)c2)n1)[C@@H]1CCNC1` ?
30 to 50%

---

- System: Human osteosarcoma U20S cells
- measurement_protocol: Assay to measure lysosome and autolysosome formation (acidic vesicle formation, LysoView/LysoTracker staining)
- Format: cell-based
- experimental_setup: Homo sapiens; U2OS cells, concentration of 0.8 μM; read-out: Activity (percentage increase in acidic vesicle formation over the DMSO-treated control), Table 2
# maps each entry to its activation at 0.8 µM

# compound, activation at 0.8 µM
measured = [
    ("CCCN(C(=O)c1csc(-c2cnn(-c3ccc(C)cc3)c2)n1)[C@@H]1CCNC1", "30 to 50%"),
    ("CC(C)N(C(=O)c1cc(-c2cnn(-c3ccccc3)c2)c[nH]1)[C@@H]1CCNC1", "30 to 50%"),
    ("CC(C)N(C(=O)c1csc(-c2cnn(-c3ccccc3)c2)n1)C1CC2(CNC2)C1", "30 to 50%"),
    ("CC(C)N(C(=O)c1csc(-c2cnn(-c3ccccc3)c2)n1)[C@@H]1CCNC1", "50 to 100%"),
    ("CCCN(C(=O)c1csc(-c2cnn(-c3ccccc3C(F)(F)F)c2)n1)[C@H]1CCNC1", "30 to 50%"),
    ("NC1CCCN(C(=O)c2csc(-c3cnn(-c4ccccc4)c3)n2)C1 (centres unmarked)", "10 to 30%"),
    ("CC(C)N(C(=O)c1ccc(-c2cnn(-c3ccccc3)c2)[nH]1)[C@@H]1CCNC1", "> 100%"),
    ("NCCOCCNC(=O)c1ccc(-c2cnn(-c3ccccc3)c2)o1", "30 to 50%"),
]

Quick check: activation at 0.8 µM of `O=C(NCC1CCNCC1)c1cc(-c2cnn(-c3ccccc3)c2)cs1` ?
30 to 50%

Another: `CCCN(C(=O)c1csc(-c2cnn(-c3ccccc3F)c2)n1)[C@H]1CCNC1`
50 to 100%

Cool, now `CCCN(C(=O)c1csc(-c2cnn(-c3ccccn3)c2)n1)[C@H]1CCNC1`
10 to 30%

How about this compound: `O=C(NC1CNC1)c1csc(-c2cnn(-c3ccccc3)c2)n1`
30 to 50%
